# credit: PubChem BioAssay (NCI)

assay-comment: NCI Yeast Anticancer Drug Screen. Data for the sgs1 mgt1 strain (AID 161);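 note: 0% = growth of cultures given vehicle only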
experimental-setup: S. cerevisiae sgs1 mgt1 strain, stronger effect = higher value; at 50.0 µM unless noted
About 79,000 compounds went through this panel and 15% of them were active in at least one assay; those are over-represented in the sample as a whole.
result-type: growth inhibition (%)
Report the figure in % without appending any unit label.

Previously resolved entries follow.
O=CNNc1nn2cnnc2c2ccccc12	-6.55
CCCCOC(=O)C(C)OC(=O)C(C)Oc1cc(Cl)c(Cl)cc1Cl (stereo unspecified)	0.3
CC(C)NC(=O)OCc1c(COC(=O)NC(C)C)c(-c2ccc(F)cc2F)n2c1CCC2	10
O=C(CCCCCCCC(=O)NO)NO	12.8
O=C1C2C3ON(c4ccccc43)C2C(=O)N1c1ccccc1 (stereo unspecified)	15.4

// returns reported growth inhibition for input NNC(=O)C(c1ccccc1)c1ccccc1
-18.8

* * *

# growth inhibition per record follows
assay-comment: NCI Yeast Anticancer Drug Screen. Data for the mec2-1 strain (AID 157)
experimental-setup: S. cerevisiae mec2-1 strain, stronger effect = higher value; at 50.0 µM unless noted
Compounds without any hit were thinned out: in the full panel of roughly 79,000, 15% have a hit.
The figure you give is taken to be in %; do not add the unit.

Please review the following examples before continuing.
C=CC(=O)NC12CC3CC(CC(C3)C1)C2	-0.3
CC(C)c1cccc(C(C)C)c1NC(=O)C(=O)Cc1nc2ccc([N+](=O)[O-])cc2[nH]c1=O	19.6
CC(C)C(=O)NS(=O)(=O)c1ccccc1	-3.8
c1ccc2c(c1)ccc1c[n+]3ccccc3cc12	23.1
O=C(O)C(C(=O)N(c1ccccc1)c1ccccc1)c1ccccc1 (stereo unspecified)	-1.05

Look up growth inhibition: CNC(=O)NC(c1ccc(F)cc1)c1cc2c(cc1O)OCO2 (stereo unspecified)
-16.4

* * *

assay-comment: NCI Yeast Anticancer Drug Screen. Data for the bub3 strain (AID 167)
experimental-setup: S. cerevisiae bub3 mutant strain, stronger effect = higher value; at 50.0 µM unless noted
About 79,000 compounds went through this panel and 15% of them were active in at least one assay; those are over-represented in the sample as a whole.
Returns YES if the recorded growth inhibition is greater than or equal to 20%, and NO otherwise.

Solved cases (5 shown):
CS/C(=N\c1nccs1)NC(=O)c1cccc(Cl)c1	YES
CNC(=O)N(CCCC(NC(C)=O)C(=O)NCc1ccccc1)Cc1ccccc1 (stereo unspecified)	NO
O=C(C[n+]1ccccc1CO)c1ccc(-c2ccccc2)cc1	NO
C=C1c2nc3ccccc3n2C=C(c2ccc(C)cc2)N1c1ccc(C)cc1	NO
CCOc1ccccc1N=C(NC(=O)CC)SC	YES

# bool: growth inhibition of CCCCCc1cc[n+](CC(=O)c2ccc(F)cc2)cc1 >= 20%
YES

* * *

assay-comment: NCI Yeast Anticancer Drug Screen. Data for the sgs1 mgt1 strain (AID 161);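 note: 0% = growth of cultures given vehicle only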
experimental-setup: S. cerevisiae sgs1 mgt1 strain; at 50.0 µM unless noted
Compounds without any hit were thinned out: in the full panel of roughly 79,000, 15% have a hit. Active and inactive are the calls of the source. Cut-off read from the data, not from the text of the source: active = growth inhibition above about 70%; inactive = the rest.
# valid calls are active, inactive; nothing else

Worked set:
CCCCN(CCCC)CCC(O)c1cc(-c2ccc(C(F)(F)F)cc2)nc(C(F)(F)F)c1 (configuration not stated)	active
COc1cc2c(c3oc4c(O)cccc4c(=O)c13)CC(C(C)(O)CO)O2 (configuration not stated)	inactive
OC1(C#CC#CC2(O)CCCCC2)CCCCC1	inactive
CS(C)=NC(=Nc1ccccc1)c1ccccc1	inactive
c1ccc(NN=Nc2ncnc3nc[nH]c23)cc1	inactive

Any idea what this test logged for CN(C)C(=O)NN1CCCCCC1 ?
inactive
